READOUT: melting point (°C)

COMPOUND	DATA_VALUE
COc1ccc(C(OCC2OC(n3cnc4c(NC(=O)c5ccccc5)ncnc43)C(O)C2O[Si](C)(C)C(C)(C)C)(c2ccccc2)c2ccccc2)cc1 (centres undefined)	189
CCc1ccc2[nH]c3cnn(C)c3c(=O)c2c1	266

* * *

Form field: melting point (one value per entry).

COMPOUND	DATA_VALUE
O=C1CCC(c2ccc3c(c2)NC(=O)CS3)=NN1	299 to 302 °C
N=C(N)Nc1nc2ccc(C(F)(F)F)cc2[nH]1	206 to 209 °C

Can you share its melting point? I mean this compound: `N#Cc1[nH]c(-c2c(Cl)cc(C(F)(F)F)cc2Cl)nc1Br`
270 to 272 °C

// next record `COC(=O)N1CCC(=NO)c2cc(Cl)ccc21`
162 to 163 °C

Also need `CN1CCN(c2cccc3c2C[C@H](NC(=O)c2ccc(F)cc2)CC3)CC1` , thanks.
189 to 190 °C

Check CN(C)CCOc1ccc(/C=C/C(=O)N2CC(CCl)c3c2cc(OCc2ccccc2)c2ncccc32)cc1 (stereo unspecified) too.
172 to 175 °C

Source of measurements: a melting point compilation (Tetko et al.; mined from patent text by program, amines drawn as free bases though some values may be those of a salt)
